Molecular target: T1, recombinant PCNA protein (N-terminal (His)6-PCNA) (human, UniProt P12004 1-261)
T1 construct: PCNA, human; amplified by PCR from a template plasmid (Genecoepia) into pEV-L8, which has an N-terminal (His)6-tag and a TEV protease recognition site; No TEV cleavage is described; also called human PCNA; source: E. coli BL21(DE3), purified (Ni-NTA)
T1 sequence (P12004 whole entry): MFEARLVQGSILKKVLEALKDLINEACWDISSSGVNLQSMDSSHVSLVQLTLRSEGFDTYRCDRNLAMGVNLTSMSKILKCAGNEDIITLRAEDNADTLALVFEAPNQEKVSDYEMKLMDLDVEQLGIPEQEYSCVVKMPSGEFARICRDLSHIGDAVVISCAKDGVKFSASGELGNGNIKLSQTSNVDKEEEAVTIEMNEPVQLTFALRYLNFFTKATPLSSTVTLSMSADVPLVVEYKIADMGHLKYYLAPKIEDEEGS
Assay: fluorescence polarisation; direct binding: increasing recombinant PCNA (monomer concentration) added to 50 nM FITC-PL peptide; 25 mM HEPES pH 7.4, 10% glycerol, 0.01% Triton X-100; 30 min at room temperature, read at 30°C; fit with a Hill slope
Conditions: both partners purified
No end group written: not given here. *: point of attachment. FITC = O=C1OC2(c3ccc(O)cc3Oc3cc(O)ccc32)c2ccc(NC(=S)*)cc21; Ahx = NCCCCCC(=O)O
Value type: Kd

{FITC-Ahx}-SAVLQKKITDYFHPKK (Synthesised on CLEAR Amide resin, so the C-terminus is probably an amide (surmised); also called FITC-PL peptide; FITC-PL; source: synthetic peptide (solid phase, HPLC purified)) [N-terminal fluorescein isothiocyanate (FITC) labeled PL peptide]; 0.76 µM
